# System: FGFR3;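 also: KINOMEscan kinase panel screen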
# test_parameters: concentration: 1 μM, replicates: in singlicate; n = 1
The label depends only on %Inh: satisfied if it is at least 4%, not satisfied if it is smaller.

Given Cn1ccc2ncnc(Oc3ccc(NC(=O)Nc4ccccc4)cc3)c21 , state whether its %Inh is at least 4%.
not satisfied

Given Cc1ccc(-c2cc(-c3c[nH]nc3-c3ccccn3)ccn2)cc1 [GW684088] , state whether its %Inh is at least 4%.
satisfied

Given COc1ccc2nc(-c3cccc(C)n3)nc(Nc3ccncc3)c2c1 [GSK204919] , state whether its %Inh is at least 4%.
satisfied

Given CN1C(=O)C(Nc2ccc(Cl)c(C(=O)O)c2)=C(c2ccc(Cl)cc2)C1=O [SB-404290] , state whether its %Inh is at least 4%.
not satisfied

Given CCn1c(-c2ccccn2)nc2cnccc21 [SB-736398] , state whether its %Inh is at least 4%.
satisfied

Given O=S(=O)(c1ccc(-c2ccnc3[nH]ccc23)cc1)N1CCCC1 [GSK846226] , state whether its %Inh is at least 4%.
satisfied

Given Cc1c(O)cccc1Nc1ccnc2ccc(C(F)(F)F)cc12.Cl [GW466413] , state whether its %Inh is at least 4%.
not satisfied

Given COC(=O)c1c(-c2ccccc2)c2cc(C(=O)O)ccc2c(=O)n1Cc1ccccc1 , state whether its %Inh is at least 4%.
not satisfied
